// provenance: patent US20240043542A1

- testedOn: T1, human B7-H4 on the cell surface (human, UniProt Q7Z7D3 25-282)
- T1 construct: full-length human B7-H4 on transfected HEK293T cells or endogenous on SK-BR-3 cells; also called SK-BR-3 (endogenous human B7-H4)
- T1 sequence: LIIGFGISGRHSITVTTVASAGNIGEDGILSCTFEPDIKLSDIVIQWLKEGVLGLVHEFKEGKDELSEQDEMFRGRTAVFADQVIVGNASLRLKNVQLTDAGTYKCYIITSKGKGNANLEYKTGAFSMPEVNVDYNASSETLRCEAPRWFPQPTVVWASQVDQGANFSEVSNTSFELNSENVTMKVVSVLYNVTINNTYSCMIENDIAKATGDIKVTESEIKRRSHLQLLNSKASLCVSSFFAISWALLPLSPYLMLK
- methodNotes: flow cytometry, 100 nM, transfected HEK293T
metricName: FOP (fold binding over the parental cell line) (fold)
Record the value in fold, omitting the unit from your answer.

In the examples that follow, each entry is paired with its recorded FOP (fold binding over the parental cell line).
>  <binder>
B7-H4 antibody 20501 (antibody, human IgG1, kappa, V domains shown, human IgG1/kappa) VH: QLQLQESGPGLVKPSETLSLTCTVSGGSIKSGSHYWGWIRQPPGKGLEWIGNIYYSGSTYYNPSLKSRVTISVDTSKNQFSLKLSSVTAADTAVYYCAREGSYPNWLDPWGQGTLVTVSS VL: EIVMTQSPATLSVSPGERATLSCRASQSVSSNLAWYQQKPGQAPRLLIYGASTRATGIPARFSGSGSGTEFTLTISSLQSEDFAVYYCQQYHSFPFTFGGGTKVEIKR

>  <unitOfMeasure>
fold

>  <testValue>
205

$$$$
>  <binder>
B7-H4 antibody 20496 (antibody, human IgG1, kappa, V domains shown, human IgG1/kappa) VH: QLQLQESGPGLVKPSETLSLTCTVSGGSISSSVYYWSWIRQPPGKGLEWIGSILVSGSTYYNPSLKSRVTISVDTSKNQFSLKLSSVTAADTAVYYCARAVSFLDVWGQGTMVIVSS VL: DIQMTQSPSSLSASVGDRVTITCRASQSISSYLNWYQQKPGKAPKLLIYGASSLQSGVPSRFSGSGSGTDFTLTISSLQPEDFATYYCQQSYDPPWTFGGGTKVEIKR

>  <unitOfMeasure>
fold

>  <testValue>
179

$$$$

Then this binder:
Endpoint output: FOP (fold binding over the parental cell line) of B7-H4 antibody 15495 (antibody, human IgG1, kappa, V domains shown, human IgG1/kappa) VH: QVQLVQSGAEVKKPGSSVKVSCKASGGTFSSYAISWVRQAPGQGLEWMGGIIPIFGTASYAQKFQGRVTITADESTSTAYMELSSLRSEDTAVYYCARQQYDGRRYFGLWGRGTLVTVSS VL: EIVMTQSPATLSVSPGERATLSCRASQSVSSNLAWYQQKPGQAPRLLIYSASTRATGIPARFSGSGSGTEFTLTISSLQSEDFAVYYCQQVNVWPPTFGGGTKVEIKR . Value?
619
